- Test system: A549
- Test: Anticancer activity against human A549 cells by HTS assay
- Format: functional, cell-based
Quantity Name: IC50 (µM)

>>> df
                                 smiles_str  observed_result
0  CCCOc1ccc(-c2oc3cc(O)cc(O)c3c(=O)c2O)cc1O             13.9
1  COc1cc(O)c2c(=O)c(O)c(-c3ccc(OC)c(O)c3)oc2c1             3.07
2  CCCCOc1cc(O)c2c(=O)c(O)c(-c3ccc(OCCCC)c(O)c3)oc2c1             2.06

(A) CCCCOc1cc(O)c2c(=O)c(OCCCC)c(-c3ccc(O)c(O)c3)oc2c1
(B) CCCOc1cc(O)c2c(=O)c(OCCC)c(-c3ccc(OCCC)c(O)c3)oc2c1
From the recorded data, which exceeds the other in IC50: A or B ? Please respond with the label that marks your chosen entry.
B

(1) COc1ccc(-c2oc3cc(O)cc(O)c3c(=O)c2O)cc1O
(2) CCCOc1cc(O)c2c(=O)c(OCCC)c(-c3ccc(O)c(O)c3)oc2c1
(3) COc1c(-c2ccc(O)c(O)c2)oc2cc(O)cc(O)c2c1=O
# sort list by recorded IC50, greatest to least # format: label list in the order the request specifies
2, 3, 1
